# viability at 1 µM annotations
method: in vitro
particulars: human, mcf10a cells
# value in %; strip the unit string

Worked examples follow.
{"molecule": "CC(C)(C)OC(=O)Cc1ccc(Nc2nc(Nc3cc(C4CC4)[nH]n3)c3ccccc3n2)cc1", "uom": "%", "viability at 1 µM": 98.8}
{"molecule": "NC(=O)Cc1ccc(Nc2nc(Nc3cc(C4CC4)[nH]n3)c3ccccc3n2)cc1", "uom": "%", "viability at 1 µM": 25.5}
{"molecule": "CC(C)(C)OC(=O)NCCCCCNC(=O)c1ccc(Nc2nc(Nc3cc(C4CC4)[nH]n3)c3ccccc3n2)cc1", "uom": "%", "viability at 1 µM": 77.7}
{"molecule": "CC(C)(C)OC(=O)N1CC2CCC1CN2c1nc(Nc2cc(C3CC3)[nH]n2)c2ccccc2n1 (centres unmarked)", "uom": "%", "viability at 1 µM": 71.3}

Q) Any idea what viability at 1 µM was measured for `CC(C)(C)OC(=O)N1CCC2(CC1)CCN(c1nc(Nc3cc(C4CC4)[nH]n3)c3ccccc3n1)CC2` ?
A) 122

Q) Moving on to the next molecule: `c1ccc2c(Nc3cc(C4CC4)[nH]n3)nc(N3CC4CCC(C3)N4)nc2c1`
A) 34.9

Q) How about O=C(Nc1ccccc1)N1CC2CC1CN2c1nc(Nc2cc(C3CC3)[nH]n2)c2ccccc2n1 (centres unmarked) [compound 15c] ?
A) 40

Q) `CC(C)(C)OC(=O)N1CCN(c2nc(Nc3cc(C4CC4)[nH]n3)c3ccccc3n2)CC1` ?
A) 60.7

* * *

Parameter: pIC50. Scope: all listed entries.
assayed target: Recombinant GST-TAG-MASTL (Homo sapiens)
Construct: GST; purchased Thermo Fisher Scientific
Sequence (Q96GX5 whole entry): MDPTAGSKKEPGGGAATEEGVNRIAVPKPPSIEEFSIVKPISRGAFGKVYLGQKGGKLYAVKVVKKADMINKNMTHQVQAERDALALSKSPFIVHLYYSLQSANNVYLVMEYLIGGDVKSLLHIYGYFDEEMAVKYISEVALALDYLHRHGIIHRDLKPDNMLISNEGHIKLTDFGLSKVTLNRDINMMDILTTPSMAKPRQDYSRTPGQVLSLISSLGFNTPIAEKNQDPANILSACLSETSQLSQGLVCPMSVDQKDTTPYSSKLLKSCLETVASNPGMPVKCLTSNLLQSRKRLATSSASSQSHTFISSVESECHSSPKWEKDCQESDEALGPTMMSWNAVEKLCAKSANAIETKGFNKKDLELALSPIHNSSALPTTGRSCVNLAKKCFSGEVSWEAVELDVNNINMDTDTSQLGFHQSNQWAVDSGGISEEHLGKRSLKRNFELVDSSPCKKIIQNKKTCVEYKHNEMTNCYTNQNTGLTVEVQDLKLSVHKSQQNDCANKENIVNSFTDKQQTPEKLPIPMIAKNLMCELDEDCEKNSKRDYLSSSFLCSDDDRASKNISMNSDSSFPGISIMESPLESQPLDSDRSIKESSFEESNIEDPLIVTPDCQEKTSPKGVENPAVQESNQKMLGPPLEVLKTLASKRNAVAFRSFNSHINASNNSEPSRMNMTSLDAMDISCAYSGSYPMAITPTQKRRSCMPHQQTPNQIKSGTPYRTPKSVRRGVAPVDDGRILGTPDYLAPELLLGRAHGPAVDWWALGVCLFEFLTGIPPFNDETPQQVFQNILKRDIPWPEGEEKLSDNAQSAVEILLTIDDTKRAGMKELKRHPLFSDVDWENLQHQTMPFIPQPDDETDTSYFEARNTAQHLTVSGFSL
method: HTRF-based kinase assay (HTRF KinEASE assay kit)
Type: biochemical
Worth noting: pIC50 values are minus log10 of concentrations stated in mol/L.

{"compound": "N#CCc1ccc(Nc2nc(Nc3cc[nH]n3)c3ccccc3n2)cc1 [compound 3o]", "quantity name": "pIC50", "value observed": 5.59}
{"compound": "NS(=O)(=O)c1ccc(Nc2nc(Nc3cc(C4CC4)[nH]n3)c3ccccc3n2)cc1 [compound 4g]", "quantity name": "pIC50", "value observed": 6.72}
{"compound": "O=S(=O)(NCCO)c1ccc(Nc2nc(Nc3cc(C4CC4)[nH]n3)c3ccccc3n2)cc1 [compound 4i]", "quantity name": "pIC50", "value observed": 5.92}

Q) Need pIC50, item NCCCNC(=O)c1ccc(Nc2nc(Nc3cc(C4CC4)[nH]n3)c3ccccc3n2)cc1 [4ab]
A) 5.96

Q) Thanks! And c1ccc2c(Nc3cc(C4CC4)[nH]n3)nc(N3CC4CC3CN4)nc2c1 (centres unmarked) [compound 14] ?
A) 6.23

* * *

System: MCF7 breast cancer cell lines
method: Cell viability analysis, WST-8 assay, MCF7
particulars: Homo sapiens, MCF7, 72 h, read-out: Cell viability (%) WST-8, MCF7 (1 µM), compound 1 µM, 72 hours
Label scheme, based on viability at 1 µM: bottom bin (below 70%), middle bin (70% to below 90%), top bin (90% or more)

{"compound": "COC(=O)c1ccc(Nc2nc(Nc3cc(C4CC4)[nH]n3)c3ccccc3n2)cc1 [compound 4o]", "assayed target": "MCF7 breast cancer cell lines", "group": "bottom bin"}

Q) Lab note: which band did Cc1cc(Nc2nc(N3CC4CC3CN4C(=O)Nc3ccccc3)nc3ccccc23)n[nH]1 (stereo not shown) [compound 27b] land in?
A) middle bin

Q) Can you check c1ccc2c(Nc3cc(C4CC4)[nH]n3)nc(Nc3ccc4[nH]ncc4c3)nc2c1 [compound 4dd] next?
A) bottom bin

Q) What do you have for c1ccc2c(Nc3cc(C4CC4)[nH]n3)nc(Nc3ccc4cc[nH]c4c3)nc2c1 [compound 4dc] ?
A) bottom bin

Q) Input CC(C)C(=O)N1CC=C(c2nc(Nc3cc(C4CC4)[nH]n3)c3ccccc3n2)CC1 [compound 9b]
A) bottom bin

Recorded values, source patent EP4786466A1.
